test-system: HEK-293-αVβ3 cells (Homo sapiens, UniProt P05106+P06756)
Sequence (P05106 whole entry): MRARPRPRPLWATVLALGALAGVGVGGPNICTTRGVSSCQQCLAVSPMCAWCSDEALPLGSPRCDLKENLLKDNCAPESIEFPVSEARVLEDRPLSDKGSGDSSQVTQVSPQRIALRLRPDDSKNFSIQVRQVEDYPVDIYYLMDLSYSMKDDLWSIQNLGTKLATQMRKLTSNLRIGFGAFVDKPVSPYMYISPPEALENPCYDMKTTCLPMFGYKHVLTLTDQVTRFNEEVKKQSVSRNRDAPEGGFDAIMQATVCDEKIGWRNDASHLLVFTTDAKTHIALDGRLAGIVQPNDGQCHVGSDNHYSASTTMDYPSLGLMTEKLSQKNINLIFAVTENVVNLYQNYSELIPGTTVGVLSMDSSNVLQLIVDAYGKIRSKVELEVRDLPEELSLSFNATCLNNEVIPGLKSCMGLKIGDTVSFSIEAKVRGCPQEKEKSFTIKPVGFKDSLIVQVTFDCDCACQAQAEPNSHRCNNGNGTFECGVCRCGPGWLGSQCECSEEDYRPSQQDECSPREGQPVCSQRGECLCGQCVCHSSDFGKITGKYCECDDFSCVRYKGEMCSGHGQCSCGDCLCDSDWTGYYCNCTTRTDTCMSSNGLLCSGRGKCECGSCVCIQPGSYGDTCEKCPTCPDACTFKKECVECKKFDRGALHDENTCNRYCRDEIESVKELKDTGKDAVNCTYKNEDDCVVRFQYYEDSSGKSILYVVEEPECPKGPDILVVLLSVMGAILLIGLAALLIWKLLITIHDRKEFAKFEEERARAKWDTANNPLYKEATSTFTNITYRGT
Sequence (P06756 whole entry): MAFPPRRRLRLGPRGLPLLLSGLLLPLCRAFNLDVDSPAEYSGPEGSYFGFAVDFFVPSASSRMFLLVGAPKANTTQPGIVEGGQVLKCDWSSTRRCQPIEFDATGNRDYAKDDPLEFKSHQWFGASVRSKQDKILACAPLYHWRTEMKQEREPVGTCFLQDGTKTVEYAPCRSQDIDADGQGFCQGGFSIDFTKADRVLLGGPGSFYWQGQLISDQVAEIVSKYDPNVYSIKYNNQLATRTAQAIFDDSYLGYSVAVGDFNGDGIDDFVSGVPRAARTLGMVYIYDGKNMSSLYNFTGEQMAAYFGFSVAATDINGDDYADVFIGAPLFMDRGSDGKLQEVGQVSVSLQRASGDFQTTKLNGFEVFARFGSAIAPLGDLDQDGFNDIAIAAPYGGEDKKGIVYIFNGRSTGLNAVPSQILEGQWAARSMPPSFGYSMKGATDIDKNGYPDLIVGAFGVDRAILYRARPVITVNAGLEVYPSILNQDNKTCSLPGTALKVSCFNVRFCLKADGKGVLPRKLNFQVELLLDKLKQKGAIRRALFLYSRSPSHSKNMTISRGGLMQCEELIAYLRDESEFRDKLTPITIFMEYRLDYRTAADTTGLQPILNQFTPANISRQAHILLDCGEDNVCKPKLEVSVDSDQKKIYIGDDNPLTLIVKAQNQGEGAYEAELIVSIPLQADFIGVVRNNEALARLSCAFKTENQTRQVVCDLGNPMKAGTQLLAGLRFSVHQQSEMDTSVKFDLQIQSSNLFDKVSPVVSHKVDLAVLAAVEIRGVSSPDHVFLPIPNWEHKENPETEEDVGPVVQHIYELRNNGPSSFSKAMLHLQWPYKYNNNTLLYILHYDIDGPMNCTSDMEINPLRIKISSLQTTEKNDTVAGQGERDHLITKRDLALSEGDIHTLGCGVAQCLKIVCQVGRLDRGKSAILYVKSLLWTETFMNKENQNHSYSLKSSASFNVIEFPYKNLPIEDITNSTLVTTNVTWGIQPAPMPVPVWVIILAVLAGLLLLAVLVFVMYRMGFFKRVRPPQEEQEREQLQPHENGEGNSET
test-protocol: αVβ3 Cell Adhesion to Fibrinogen Assay
settings: dose reducing by 50% the adhesion of HEK-293-αVβ3 cells to fibrinogen; separate determinations listed
Source text: HEK-293 Cells Expressing αVβ3. HEK-293 cells were transfected using lipofectamine 2000 (Invitrogen #11668030) with the cDNA for αV using the pEF1/V5-His A vector and the cDNA for β3 using the vector pcDNA3.1. […] HEK-293-αVβ3 cells for assays are counted in an automated cell counter (ADVIA 120) and adjusted to values appropriate for each assay. […]
recorded-endpoint: IC50

{"molecule": "O=C(CCCCc1ccc2c(n1)NCCC2)NCCC(NS(=O)(=O)c1ccc(Oc2ccccc2)cc1)C(=O)O (stereo not shown)", "IC50": "> 10 µM"}
{"molecule": "O=C(CCCCc1ccc2c(n1)NCCC2)NCCC(NC(=O)c1ccccn1)C(=O)O (stereo not shown)", "IC50": "< 0.1 µM"}
{"molecule": "COC(=O)C(CCNC(=O)CCCCc1ccc2c(n1)NCCC2)Cc1ccccc1 (stereo not shown)", "IC50": "> 10 µM"}

Please examine the following record next.
[in] Looking for the measured IC50 of COC(=O)NC(CCNC(=O)CCCCc1ccc2c(n1)NCCC2)C(=O)O (stereo not shown) , can you help?
[out] < 0.1 µM

----------
Recorded IC50, one value per entry.
test-system: HEK-293-αVβ3 cells (Homo sapiens, UniProt P05106+P06756)
test-protocol: αVβ3 Cell Adhesion to Fibrinogen Assay
settings: dose reducing by 50% the adhesion of HEK-293-αVβ3 cells to fibrinogen; separate determinations listed
From the text: HEK-293 Cells Expressing αVβ3. HEK-293 cells were transfected using lipofectamine 2000 (Invitrogen #11668030) with the cDNA for αV using the pEF1/V5-His A vector and the cDNA for β3 using the vector pcDNA3.1. […] HEK-293-αVβ3 cells for assays are counted in an automated cell counter (ADVIA 120) and adjusted to values appropriate for each assay. […]

Use these answered entries as a reference point.
{"molecule": "COC(=O)C(CCNC(=O)CCCCc1ccc2c(n1)NCCC2)c1ccccc1 (centres unmarked)", "test-system": "HEK-293-αVβ3 cells (Homo sapiens, UniProt P05106+P06756)", "result": "> 10 µM"}
{"molecule": "O=C(CCCCc1ccc2c(n1)NCCC2)NCCC(NC(=O)Nc1ccc(Oc2ccccc2)cc1)C(=O)O (centres unmarked)", "test-system": "HEK-293-αVβ3 cells (Homo sapiens, UniProt P05106+P06756)", "result": "> 10 µM"}
{"molecule": "O=C(CCCCc1ccc2c(n1)NCCC2)NCCC(Cc1ccccc1)C(=O)O (centres unmarked)", "test-system": "HEK-293-αVβ3 cells (Homo sapiens, UniProt P05106+P06756)", "result": "> 10 µM"}
{"molecule": "CC(CCNC(=O)CCCCc1ccc2c(n1)NCCC2)C(=O)O (centres unmarked)", "test-system": "HEK-293-αVβ3 cells (Homo sapiens, UniProt P05106+P06756)", "result": "> 10 µM"}
{"molecule": "CC1(C)[C@@H]2CC[C@]1(CS(=O)(=O)NC(CCNC(=O)CCCCc1ccc3c(n1)NCCC3)C(=O)O)C(=O)C2 (some centres unmarked)", "test-system": "HEK-293-αVβ3 cells (Homo sapiens, UniProt P05106+P06756)", "result": "< 0.1 µM"}
{"molecule": "COC(=O)C(C)CCNC(=O)CCCCc1ccc2c(n1)NCCC2 (centres unmarked)", "test-system": "HEK-293-αVβ3 cells (Homo sapiens, UniProt P05106+P06756)", "result": "> 10 µM"}
{"molecule": "COC(=O)[C@@H](CCNC(=O)CCCCc1ccc2c(n1)NCCC2)NC(=O)OCc1ccccc1", "test-system": "HEK-293-αVβ3 cells (Homo sapiens, UniProt P05106+P06756)", "result": "> 10 µM"}

[in] For the molecule O=C(CCCCc1ccc2c(n1)NCCC2)NCCC(NC(=O)CO)C(=O)O (centres unmarked) , what IC50 is on record?
[out] < 0.1 µM
